assayed.target: Hematopoietic prostaglandin D synthase (Homo sapiens)
Sequence (O60760 whole entry): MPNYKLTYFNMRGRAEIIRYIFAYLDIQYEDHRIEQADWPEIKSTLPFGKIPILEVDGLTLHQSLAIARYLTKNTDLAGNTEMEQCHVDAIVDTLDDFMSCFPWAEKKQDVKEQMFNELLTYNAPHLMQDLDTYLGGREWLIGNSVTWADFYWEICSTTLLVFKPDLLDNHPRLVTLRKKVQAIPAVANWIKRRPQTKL
protocol.summary: Inhibition of HPGDS (unknown origin) assessed as reduction in reduction in LPS-induced PGD2 level by ELISA
Please use met for IC50 under 70 nM and not met for everything else, ties included.

Solved cases (3 shown):
c1ccc(-c2ccc(-c3cnc(-c4ccccc4)[nH]3)cn2)cc1 met
CC(C)(O)c1nc(-c2cccc(-c3ncc(-c4cnc(-c5ccccc5)nc4)[nH]3)c2)no1 met
O=C(NCc1ccccc1)c1cnc(-c2ccccn2)nc1 met

Consider `O=C(NCc1ccccc1)c1cnc(-c2ccccc2)nc1` . Does its IC50 lie strictly below 70 nM?
met

Decide: IC50 of `O=C(NCc1ccccc1)c1ccc(-c2ccccn2)nc1` strictly below 70 nM?
not met

I'd appreciate it if you could check whether `CC(C)(O)c1nc(-c2cccc(CNC(=O)c3ccc(-c4ccccc4)nc3)c2)no1` has IC50 smaller than 70 nM.
not met

Take the molecule `c1ccc(-c2ncc(-c3cnc(-c4cccnc4)[nH]3)cn2)cc1` and say whether its IC50 is less than 70 nM.
met

Quick check: IC50 of `O=C(NCc1ccccc1)c1ccc(-c2ccccc2)nc1` under 70 nM?
not met

====

protocol.summary: Half life in human liver microsomes
Type: ADME, Microsome
assay.metric: half-life

# half-life of `CC(C)(O)c1nc(-c2cccc(-c3ncc(-c4cnc(-c5ccccc5)nc4)[nH]3)c2)no1` = > 1 h

====

assayed.target: Hematopoietic prostaglandin D synthase (Homo sapiens)
protocol.summary: Inhibition of HPGDS (unknown origin) assessed as reduction in reduction in GSTase activity relative to control
Parameters: concentration or dose not given beside the values
details: concentration not given here
Each entry falls in a class defined on inhibition; the bands are low bracket = under 70%, middle bracket = from 70% up to 80%, high bracket = 80% and over

Examples from the recorded data:
c1ccc(-c2ncc(-c3cnc(-c4ccccn4)nc3)[nH]2)cc1 low bracket
c1ccc(-c2ncc(-c3cnc(-c4cccnc4)[nH]3)cn2)cc1 low bracket
CC(C)(O)c1nc(-c2cccc(-c3ncc(-c4ccc(-c5ccccc5)nc4)[nH]3)c2)no1 high bracket

Exercise: read the entry `Cn1c(-c2cnc(-c3ccccc3)nc2)cnc1-c1ccccc1` and state which class it falls under.
low bracket

Kindly identify the class of `CC(C)(O)c1nc(-c2cccc(CNC(=O)c3cnc(-c4ccccc4)nc3)c2)no1` .
high bracket

Given `CC(C)(O)c1nc(-c2cccc(-c3ncc(-c4cnc(-c5ccccc5)nc4)[nH]3)c2)no1` , name the class its inhibition places it in.
high bracket

Kindly identify the class of `c1ccc(-c2ncc(-c3ccc(-c4ccccn4)nc3)[nH]2)cc1` .
middle bracket

# bin label for `CC(C)(O)c1nc(-c2cccc(-c3ncc(-c4ccc(-c5ccccn5)nc4)[nH]3)c2)no1`
middle bracket

Band for the recorded inhibition of `CC(C)(O)c1nc(-c2cccc(CNC(=O)c3ccc(-c4ccccn4)nc3)c2)no1` ?
low bracket

====

assayed.target: Hematopoietic prostaglandin D synthase (Homo sapiens)
protocol.summary: Binding affinity to HPGDS (unknown origin) assessed as change in melting temperature in presence of GSH by thermal shift assay
As shown below, each of these molecules has a reported ΔTm value.
Provide a numeric answer, followed by its unit.

These solved cases illustrate the format of a correct answer.
c1ccc(-c2ncc(-c3ccc(-c4ccccn4)nc3)[nH]2)cc1 5.2 °C
CC(C)(O)c1nc(-c2cccc(CNC(=O)c3ccc(-c4ccccc4)nc3)c2)no1 3.3 °C
c1ccc(-c2ncc(-c3cnc(-c4ccccn4)nc3)[nH]2)cc1 0.6 °C
O=C(NCc1ccccc1)c1ccc(-c2ccccn2)nc1 2.8 °C
Cn1c(-c2cnc(-c3ccccc3)nc2)cnc1-c1ccccc1 3.4 °C

// moving on: another record for ΔTm
Hey, Hematopoietic prostaglandin D synthase (Homo sapiens) data for `O=C(NCc1ccccc1)c1cnc(-c2ccccc2)nc1` : ΔTm came out at 4.6 °C
